Listing: inhibition of selected molecules
Tested on: Plasmodium falciparum
experimental.protocol: MMV: P. falciparum NF54 functionally mature Stage V gametocytes were incubated for 24 hr in the presence of the test compounds. Gamete formation was then triggered by addition of 2uM xantheurenic acid and temperature decrease to ~20C. Male gamete exflagellation was recorded and analysed by automated microscopy after 20 min. All compounds were tested in 4 independent experiments and data presented here is the mean.
Format: functional
Parameters: concentration or dose not given beside the values
quantity: inhibition (%)

>>> test_result("O=C1c2ccc3c4c(ccc(c24)C(=O)N1CCCCO)C(=O)N(CCCCO)C3=O")
-2.41
>>> test_result("Cc1ccc(-c2cc3c(nn2)-c2ccccc2C3=O)cc1")
30.4
>>> test_result("CCOc1ccc(-c2nonc2NC(=O)c2cccc(C)c2)cc1OCC")
52.4
>>> test_result("CC(C)CCNCC(O)Cn1c2ccccc2c2ccccc21.Cl (configuration not stated)")
-10.1
>>> test_result("Cc1cc(Nc2ccc(OCc3ccccc3)cc2)nc2cc(O)ccc12")
32.7
>>> test_result("Oc1ccc(Br)cc1CN1CCN(Cc2ccc(Cl)cc2)CC1")
-54.3
>>> test_result("c1ccc2c(NCCc3c[nH]c4ccccc34)c3ccccc3nc2c1")
5.59
>>> test_result("COc1ccc(NC(=O)C2c3ccccc3C(=O)N(CC(C)C)C2c2cccs2)cc1Cl (configuration not stated)")
8.99
>>> test_result("COc1ccccc1NC1=C(N2CCCCC2)C(=O)c2ccccc2C1=O")
96.8
>>> test_result("COc1ccc(Nc2nc(NCc3ccccc3)c3ccccc3n2)cc1")
-30.2
>>> test_result("CCOc1cc2c(cc1OCC)C(c1cc(Cl)c(O)c(OCC)c1)NCC2 (configuration not stated)")
22.4
>>> test_result("CCOC(=O)c1c(C)n(-c2ccc(Cl)cc2)c2ccc(OC(=O)C=Cc3ccccc3)cc12")
18.8
>>> test_result("CC(C)CNC(=O)c1c(N)n(CCc2ccccc2F)c2nc3ccccc3nc12")
24.1
>>> test_result("COc1ccccc1N1C(=N)SC(=Cc2ccc(OCc3ccccc3F)cc2)C1=O")
12.8
>>> test_result("CCc1ccc(Nc2cc(C)c3ccc(O)cc3n2)cc1.Cl")
15.2
>>> test_result("CCOc1cccc2sc(N(Cc3cccnc3)C(=O)C3CCCCC3)nc12")
-1.33
>>> test_result("Cc1ccc(C2CC(C(F)(F)F)n3nc(C(=O)N4CCN(C(c5ccccc5)c5ccccc5)CC4)cc3N2)cc1 (configuration not stated)")
8.58
>>> test_result("CCOc1ccc(N2C(N)=NC(N)=NC2(C)C)cc1.Cl")
66.8
>>> test_result("FC(F)(F)c1cccc(CNC2CCN(CCc3ccccc3)CC2)c1")
-0.872
>>> test_result("CCCCCCc1cc(O)c2c3c(c(=O)oc2c1)CCC(C)C3 (configuration not stated)")
-1.29
>>> test_result("O=C(O)C(=O)O.Oc1ccccc1CN1CCN(C(c2ccccc2)c2ccccc2)CC1")
23.5
>>> test_result("CCn1nc(-c2ccc(C(=O)OC)cc2)nc2c(=O)n(C)c(=O)nc1-2")
25.3

Recorded values, source ChEMBL document CHEMBL3301451.
